Target: Recombinant human LTC4 synthase (Homo sapiens, UniProt Q16873)
Sequence (Q16873 whole entry): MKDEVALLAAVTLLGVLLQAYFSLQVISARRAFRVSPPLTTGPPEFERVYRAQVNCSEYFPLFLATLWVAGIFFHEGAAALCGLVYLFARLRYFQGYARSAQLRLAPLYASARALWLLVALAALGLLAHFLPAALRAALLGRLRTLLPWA
Test: LTC4 synthase in vitro assay (LTA4 to LTC4, HTRF detection)
endpoint.label: IC50 (nM)

                                   compound                               test_target  endpoint_label  numeric_result
0  O=C(c1ccc(Oc2ccccc2)c(C(=O)O)c1)c1ccc(-c2cccc(Cl)c2)cn1 [7:1]  Recombinant human LTC4 synthase (Homo sapiens, UniProt Q16873)            IC50            1110

P. CN(c1ccc(Cl)cc1)c1cnc(C(=O)c2ccc(Oc3ccccc3)c(C(=O)O)c2)nc1 [10:3]
Q. O=C(c1ccc(Oc2ccccc2F)c(C(=O)O)c1)c1ccc(N(CC(F)(F)F)c2ccc(Cl)cc2F)cn1 [1:35]
Incoming: Given P and Q , report the one with the higher recorded IC50. Provide the label of your selected option as the answer.
Outgoing: Q
(Q: 621 nM, P: 300 nM)
